Data origin, for the record: patent US12029797B2

System: normal cynomolgus monkeys
EXPERIMENTAL_PROTOCOL: PET test using normal cynomolgus monkey (SUV in heart muscle and bone ROI)
Assay type: in vivo
MEASUREMENT_SETUP: bone ROI (near the spine), 120 Minutes after administration; n.d. = target organ cannot be confirmed in the image, ROI cannot be set
READOUT_NAME: SUV (Bone)
Write the number on its own, no unit after it.

CCCC([18F])CCCC/C=C\CCCCSCCC(=O)O (stereo not shown) [Reference Example 5] | 1.54
CCCCCCCC/C=C\CCC([18F])CSCCC(=O)O (stereo not shown) | 2.49
O=C(O)CCSCCCC/C=C\CCCCCCCC[18F] [Reference Example 4, reference compound] | 3.82

Turning now to a further molecule:
Q) Quick check: SUV (Bone) on normal cynomolgus monkeys, item CC([18F])CCCCCC/C=C\CCCCSCCC(=O)O (stereo not shown) [Reference Example 6] ?
A) 1.94

----------
Tested on: normal cynomolgus monkeys
EXPERIMENTAL_PROTOCOL: PET test using normal cynomolgus monkey (SUV in heart muscle and bone ROI)
Assay type: in vivo
MEASUREMENT_SETUP: heart muscle ROI, 20 Minutes after administration, about 300 MBq lower extremity vein, male cynomolgus monkey
READOUT_NAME: SUV (Heart muscle)
Kindly provide the number alone.

CCCC([18F])CCCC/C=C\CCCCSCCC(=O)O (centres unmarked) [Reference Example 5] | 4.79

Q) # returns recorded SUV (Heart muscle) (system: normal cynomolgus monkeys) for CC([18F])CCCCCC/C=C\CCCCSCCC(=O)O (centres unmarked) [Reference Example 6]
A) 5.88

Q) Now this one: CCCCCCCC/C=C\CC([18F])CCSCCC(=O)O (centres unmarked)
A) 8.46

Q) Try this compound too: O=C(O)CCSCCCC/C=C\CCCCCCCC[18F] [Reference Example 4, reference compound]
A) 6.45

Q) Follow-up item: CCCCCCCC/C=C\CCC([18F])CSCCC(=O)O (centres unmarked)
A) 8.35

----------
Test system: normal cynomolgus monkeys
EXPERIMENTAL_PROTOCOL: PET test using normal cynomolgus monkey (SUV in heart muscle and bone ROI)
Type: in vivo
MEASUREMENT_SETUP: heart muscle ROI, 120 Minutes after administration, about 300 MBq lower extremity vein, male cynomolgus monkey
Description: Solutions containing each compound prepared in Example 1 (7-[^18F]FTO), Example 2 (6-[^18F]FTO), Reference Example 4 ([^18F]FTO), Reference Example 5 (15-[^18F]FTO), and Reference Example 6 (17-[^18F]FTO) were used to perform a heart contrast PET test using normal cynomolgus monkeys. […] The SUV values quantified by setting the ROI for the heart muscle and the bone of each compound are shown in Tables 6 and 7 as SUV (heart muscle) and SUV (bone). […]
READOUT_NAME: SUV (Heart muscle)
Just the number.

Solved cases (4 shown):
CCCCCCCC/C=C\CCC([18F])CSCCC(=O)O (centres unmarked) | 6.60
CCCCCCCC/C=C\CC([18F])CCSCCC(=O)O (centres unmarked) | 8.85
CC([18F])CCCCCC/C=C\CCCCSCCC(=O)O (centres unmarked) [Reference Example 6] | 4.86
CCCC([18F])CCCC/C=C\CCCCSCCC(=O)O (centres unmarked) [Reference Example 5] | 3.21

Here is another molecule to look at.
Q) Lab note: need SUV (Heart muscle) with normal cynomolgus monkeys for entry O=C(O)CCSCCCC/C=C\CCCCCCCC[18F] [Reference Example 4, reference compound] , please look it up.
A) 5.90

----------
Tested on: normal cynomolgus monkeys
EXPERIMENTAL_PROTOCOL: PET test using normal cynomolgus monkey (SUV in heart muscle and bone ROI)
Assay type: in vivo
MEASUREMENT_SETUP: heart muscle ROI, 60 Minutes after administration, about 300 MBq lower extremity vein, male cynomolgus monkey
Overview of reported SUV (Heart muscle) across a group of compounds:

CC([18F])CCCCCC/C=C\CCCCSCCC(=O)O (centres unmarked) [Reference Example 6] | 5.78
CCCCCCCC/C=C\CC([18F])CCSCCC(=O)O (centres unmarked) | 9.26
CCCC([18F])CCCC/C=C\CCCCSCCC(=O)O (centres unmarked) [Reference Example 5] | 3.60
CCCCCCCC/C=C\CCC([18F])CSCCC(=O)O (centres unmarked) | 7.25

Q) Look up SUV (Heart muscle): O=C(O)CCSCCCC/C=C\CCCCCCCC[18F] [Reference Example 4, reference compound]
A) 6.54 ± 0.51

----------
SUV (Bone) values for the molecules below.
Test system: normal cynomolgus monkeys
EXPERIMENTAL_PROTOCOL: PET test using normal cynomolgus monkey (SUV in heart muscle and bone ROI)
Format: in vivo
MEASUREMENT_SETUP: bone ROI (near the spine), 60 Minutes after administration; n.d. = target organ cannot be confirmed in the image, ROI cannot be set

Example cases with answers are listed next.
CCCC([18F])CCCC/C=C\CCCCSCCC(=O)O (stereo not shown) [Reference Example 5] | 1.17
O=C(O)CCSCCCC/C=C\CCCCCCCC[18F] [Reference Example 4, reference compound] | 2.27 ± 0.13

Q) # get_value(readout='SUV (Bone)', item= CCCCCCCC/C=C\CCC([18F])CSCCC(=O)O (stereo not shown) )
A) 1.96

Q) Follow-up entry: CC([18F])CCCCCC/C=C\CCCCSCCC(=O)O (stereo not shown) [Reference Example 6]
A) 1.28

----------
System: normal cynomolgus monkeys
EXPERIMENTAL_PROTOCOL: PET test using normal cynomolgus monkey (SUV in heart muscle and bone ROI)
Format: in vivo
MEASUREMENT_SETUP: heart muscle ROI, 240 Minutes after administration, about 300 MBq lower extremity vein, male cynomolgus monkey
Item-by-item account of SUV (Heart muscle)
# output: bare number, no unit

Completed entries (count: 3):
CCCCCCCC/C=C\CC([18F])CCSCCC(=O)O (stereo not shown) | 8.35
CC([18F])CCCCCC/C=C\CCCCSCCC(=O)O (stereo not shown) [Reference Example 6] | 2.60
O=C(O)CCSCCCC/C=C\CCCCCCCC[18F] [Reference Example 4, reference compound] | 4.63

Now consider a different molecule.
Q) Look up SUV (Heart muscle) for this molecule: CCCC([18F])CCCC/C=C\CCCCSCCC(=O)O (stereo not shown) [Reference Example 5]
A) 2.78

----------
Tested on: normal cynomolgus monkeys
EXPERIMENTAL_PROTOCOL: PET test using normal cynomolgus monkey (SUV in heart muscle and bone ROI)
Type: in vivo
MEASUREMENT_SETUP: cynomolgus monkey PET, result in words
READOUT_NAME: accumulation to the heart muscle compared to [^18F]FTO

CCCCCCCC/C=C\CCC([18F])CSCCC(=O)O (stereo not shown) [Example 2] | further increased
CCCC([18F])CCCC/C=C\CCCCSCCC(=O)O (stereo not shown) [Reference Example 5] | slightly reduced
CCCCCCCC/C=C\CC([18F])CCSCCC(=O)O (stereo not shown) [Example 1] | further increased
CC([18F])CCCCCC/C=C\CCCCSCCC(=O)O (stereo not shown) [Reference Example 6] | slightly reduced

----------
Measured SUV (Bone) accompanies every entry in the list below.
System: normal cynomolgus monkeys
EXPERIMENTAL_PROTOCOL: PET test using normal cynomolgus monkey (SUV in heart muscle and bone ROI)
Type: in vivo
MEASUREMENT_SETUP: bone ROI (near the spine), 20 Minutes after administration; n.d. = target organ cannot be confirmed in the image, ROI cannot be set
Give the figure only, with no unit attached.

Answered cases to consult:
O=C(O)CCSCCCC/C=C\CCCCCCCC[18F] [Reference Example 4, reference compound] | 1.42
CC([18F])CCCCCC/C=C\CCCCSCCC(=O)O (stereo not shown) [Reference Example 6] | 1.11
CCCC([18F])CCCC/C=C\CCCCSCCC(=O)O (stereo not shown) [Reference Example 5] | 1.27

Okay, now this compound:
Q) Given CCCCCCCC/C=C\CCC([18F])CSCCC(=O)O (stereo not shown) , state its recorded SUV (Bone).
A) 1.56
